- Experimental target: T1, CEACAM1 (Sino Biological) (human, UniProt P13688 35-428, limits assumed)
- T1 construct: may be the same as CEACAM1-HIS; also called hCEACAM1; biotinylated soluble CEACAM1
- T1 sequence: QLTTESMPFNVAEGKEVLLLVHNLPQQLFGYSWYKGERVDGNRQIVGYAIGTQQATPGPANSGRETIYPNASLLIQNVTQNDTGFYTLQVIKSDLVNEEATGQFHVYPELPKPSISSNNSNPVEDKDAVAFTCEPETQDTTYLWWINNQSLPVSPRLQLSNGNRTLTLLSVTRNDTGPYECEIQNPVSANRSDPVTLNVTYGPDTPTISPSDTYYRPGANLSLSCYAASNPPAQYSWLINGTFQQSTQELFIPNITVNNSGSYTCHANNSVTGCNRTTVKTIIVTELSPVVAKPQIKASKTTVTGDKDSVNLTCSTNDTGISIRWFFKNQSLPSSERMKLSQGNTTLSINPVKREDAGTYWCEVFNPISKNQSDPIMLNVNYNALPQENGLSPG
- Procedure details: SPR single-cycle

Binder | fold better than Parent (KD)
He4/L3 (antibody, IgG4, V domains shown, IgG4 S241P, kappa) VH: EVQLLESGGGLVQPGGSLRLSCAASGFSFSDYYLYWVRQAPGKGLEWVATISVGGGQTSYADSVKGRFTISRDNSKNTLYLQMNSLRAEDTAMYYCTRALYYGPAWFAYWGQGTLVTVSS VL: DIVMTQSPDSLAVSLGERATINCKSSQSLLNSANQKNYLAWYQQKPGQPPKLLIYFASTRESGVPDRFSGSGSGTDFTLTISSLQAEDVAVYYCQSHFPFPFTFGGGTKVEIK | 2.87 fold
He17/L5 (antibody, IgG4, V domains shown, IgG4 S241P, kappa) VH: EVQLLESGGGLVQPGGSLRLSCAASGFSFSDYYLYWVRQAPGKGLEWVATISVGGGQTSYADSVKGRFTISRDNSKNTLYLQMNSLRAEDTAMYYCTRARTYGPAWFAYWGQGTLVTVSS VL: DIVMTQSPDSLAVSLGERATINCKSSQSLLNSANQKNYLAWYQQKPGQPPKLLIYFASTRESGVPDRFSGSGSGTDFTLTISSLQAEDVAVYYCQSHYPFAFTFGGGTKVEIK | 1.97 fold
He6/L4#2 (antibody, IgG4, V domains shown, IgG4 S241P, kappa) VH: EVQLLESGGGLVQPGGSLRLSCAASGFSFSDYYLYWVRQAPGKGLEWVATISVGGGQTSYADSVKGRFTISRDNSKNTLYLQMNSLRAEDTAMYYCARARTYGPAWFAYWGQGTLVTVSS VL: DIVMTQSPDSLAVSLGERATINCKSSQSLLNSANQKNYLAWYQQKPGQPPKLLIYFASTRESGVPDRFSGSGSGTDFTLTISSLQAEDVAVYYCQSHYPYPYTFGGGTKVEIK | 3.78 fold
